Biological target: hSARM1 (Homo sapiens)
Construct: This assay makes use of full length SARM1, which encompasses the ARM, SAM and TIR domains; cleared lysate used as enzyme)
Sequence (Q6SZW1 28-724): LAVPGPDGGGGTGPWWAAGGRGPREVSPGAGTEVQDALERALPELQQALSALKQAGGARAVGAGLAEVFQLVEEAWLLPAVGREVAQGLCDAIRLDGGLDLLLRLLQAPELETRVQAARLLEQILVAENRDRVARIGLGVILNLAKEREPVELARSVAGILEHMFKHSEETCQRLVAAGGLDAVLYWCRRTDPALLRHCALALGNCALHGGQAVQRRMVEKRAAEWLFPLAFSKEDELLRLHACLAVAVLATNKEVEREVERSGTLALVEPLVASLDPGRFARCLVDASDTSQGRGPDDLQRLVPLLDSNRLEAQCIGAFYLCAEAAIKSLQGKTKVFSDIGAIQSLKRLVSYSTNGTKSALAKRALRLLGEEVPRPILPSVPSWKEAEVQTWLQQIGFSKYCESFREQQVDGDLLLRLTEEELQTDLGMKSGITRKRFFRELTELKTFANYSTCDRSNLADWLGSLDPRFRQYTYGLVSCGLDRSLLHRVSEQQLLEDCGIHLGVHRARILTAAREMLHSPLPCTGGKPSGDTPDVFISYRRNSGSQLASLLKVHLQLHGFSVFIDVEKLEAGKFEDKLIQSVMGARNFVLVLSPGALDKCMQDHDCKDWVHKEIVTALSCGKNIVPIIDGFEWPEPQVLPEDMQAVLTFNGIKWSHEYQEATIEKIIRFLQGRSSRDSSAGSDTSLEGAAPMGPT
Experiment: ARM-SAM-TIR SARM1 IC50 Assay (NADase activity, NAD+ cleavage, RapidFire MS)
Details: ARM-SAM-TIR lysate 5 μg/mL, 2 hrs. pre-incubation with compound, 5 μM NAD+, 2 hrs. incubation
pIC50: −log10 of the molar value.
Below is a list of entries, each paired with its recorded pIC50 value.

                               smiles_entry  endpoint_result
0  NC(=O)c1c(-c2ccncc2)n[nH]c1NC(=O)CCc1ccc(Cl)c(Cl)c1     7.00 to 7.29
1  NC(=O)c1c(-c2ccncc2)n[nH]c1NC(=O)CCc1ccc(Cl)nc1     6.30 to 7.00
2  O=C(CCc1ccc(Cl)nc1)Nc1[nH]nc2c1c(=O)[nH]c1cnccc12     6.30 to 7.00
3  NC(=O)c1c(-c2ccncc2)n[nH]c1NC(=O)CCc1ccc(Cl)c(F)c1           > 7.30
4  O=C(CCc1ccc(F)nc1)Nc1[nH]nc2c1c(=O)[nH]c1cnccc12     6.30 to 7.00

Q: Please look up its pIC50: `O=C(CCc1ccc(F)c(F)c1)Nc1[nH]nc2c1c(=O)[nH]c1cnccc12`
Ans: > 7.30

Q: Could you share which pIC50 value was measured for `NC(=O)c1c(-c2ccnnc2)n[nH]c1NC(=O)CCc1ccc(Cl)c(F)c1` ?
Ans: 7.00 to 7.29

Q: Can you look up the measured pIC50 of `NC(=O)c1c(-c2ccncc2)n[nH]c1NC(=O)CCc1ccc(F)cc1` for me?
Ans: 6.30 to 7.00

Q: What does the record list as pIC50 for `CNC(=O)c1c(-c2ccncc2)n[nH]c1NC(=O)CCc1ccc(Cl)cc1` ?
Ans: 6.30 to 7.00

Q: Requested read-out: pIC50. Entry: `NC(=O)c1c(-c2ccncc2)n[nH]c1NC(=O)CCc1ccc(F)c(F)c1`
Ans: 6.30 to 7.00
